- assayed target: Muscarinic acetylcholine receptor M2 (Homo sapiens)
Label rule met when Ki is strictly below 10 nM; otherwise label rule not met.

C[N+](C)(CCCCCC[N+]1(C)[C@@H]2C[C@H](OC(=O)[C@H](CO)c3ccccc3)C[C@H]1[C@@H]1O[C@@H]12)CCCN1C(=O)c2ccccc2C1=O (stereo not given in full): rule met
C[N+]1(C)[C@@H]2CC[C@@H]1CC(OC(=O)C(CO)c1ccccc1)C2 (stereo not given in full): rule met
CN(C)CC#CCOC1=NOCC1: rule not met
CC(C)(CN1C(=O)c2cccc3cccc(c23)C1=O)C[N+](C)(C)CCCCCC[N+](C)(C)CC#CCOC1=NOCC1: rule not met
CC(C)(CN1C(=O)c2cccc3cccc(c23)C1=O)C[N+](C)(C)CCCCCC[N+]1(C)[C@@H]2C[C@H](OC(=O)[C@H](CO)c3ccccc3)C[C@H]1[C@@H]1O[C@@H]12 (stereo not given in full): rule met

stdin: Determine if CC(C)(CN1C(=O)c2cccc3cccc(c23)C1=O)C[N+](C)(C)CCCCCC[N+]1(C)[C@@H]2CC[C@@H]1CC(OC(=O)C(CO)c1ccccc1)C2 (relative stereo) shows Ki strictly lower than 10 nM.
stdout: rule met

stdin: Determine if C[N+](C)(C)CCCCCC[N+]1(C)[C@@H]2C[C@H](OC(=O)[C@H](CO)c3ccccc3)C[C@H]1[C@@H]1O[C@@H]12 (stereo not given in full) shows Ki strictly lower than 10 nM.
stdout: rule not met

stdin: Determine if C[N+](C)(CC#CCOC1=NOCC1)CCCCCC[N+](C)(C)CCCN1C(=O)c2ccccc2C1=O shows Ki strictly lower than 10 nM.
stdout: rule not met

stdin: Determine if C[N+](C)(C)CC#CCOC1=NOCC1 shows Ki strictly lower than 10 nM.
stdout: rule met

stdin: Determine if C[N+](C)(C)CCCCCC[N+]1(C)[C@@H]2CC[C@@H]1CC(OC(=O)C(CO)c1ccccc1)C2 (relative stereo) shows Ki strictly lower than 10 nM.
stdout: rule not met

---

- assayed target: Muscarinic acetylcholine receptor M2 (Homo sapiens, UniProt P08172, Y177Q)
- Sequence (P08172 whole entry Y177Q): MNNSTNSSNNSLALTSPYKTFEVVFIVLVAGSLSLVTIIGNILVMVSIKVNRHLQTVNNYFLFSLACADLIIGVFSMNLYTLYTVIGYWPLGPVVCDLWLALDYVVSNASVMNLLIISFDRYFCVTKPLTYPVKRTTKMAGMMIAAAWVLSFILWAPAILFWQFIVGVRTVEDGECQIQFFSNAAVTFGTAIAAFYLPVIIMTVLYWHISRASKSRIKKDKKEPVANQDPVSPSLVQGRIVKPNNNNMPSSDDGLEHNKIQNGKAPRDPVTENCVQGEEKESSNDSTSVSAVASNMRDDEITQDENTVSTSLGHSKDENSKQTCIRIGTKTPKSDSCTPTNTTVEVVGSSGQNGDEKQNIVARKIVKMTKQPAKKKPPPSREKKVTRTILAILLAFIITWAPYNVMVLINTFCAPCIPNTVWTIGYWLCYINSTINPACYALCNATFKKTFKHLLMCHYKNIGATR
- method summary: Displacement of [3H]-NMS from human muscarinic M2 Y177Q mutant expressed in Flp-In-CHO cells by liquid scintillation counting
Label T when Ki is strictly below 9 nM; otherwise label F.

Use these answered entries as a reference point.
C[N+](C)(CC#CCOC1=NOCC1)CCCCCC[N+](C)(C)CCCN1C(=O)c2ccccc2C1=O: F
C[N+](C)(C)CCCCCC[N+]1(C)[C@@H]2CC[C@@H]1CC(OC(=O)C(CO)c1ccccc1)C2 (relative stereo): F
C[N+](C)(CCCCCC[N+]1(C)[C@@H]2C[C@H](OC(=O)[C@H](CO)c3ccccc3)C[C@H]1[C@@H]1O[C@@H]12)CCCN1C(=O)c2ccccc2C1=O (some centres not stated): T
C[N+](C)(C)CC#CCOC1=NOCC1: T
CC(C)(CN1C(=O)c2cccc3cccc(c23)C1=O)C[N+](C)(C)CCCCCC[N+]1(C)[C@@H]2CC[C@@H]1CC(OC(=O)C(CO)c1ccccc1)C2 (relative stereo): T

Here's the next entry for you.
stdin: Determine if C[N+](C)(C)CCCCCC[N+](C)(C)CC#CCOC1=NOCC1 shows Ki strictly lower than 9 nM.
stdout: F

---

- assayed target: Muscarinic acetylcholine receptor M2 (Homo sapiens, UniProt P08172, W422A)
- Sequence (P08172 whole entry W422A): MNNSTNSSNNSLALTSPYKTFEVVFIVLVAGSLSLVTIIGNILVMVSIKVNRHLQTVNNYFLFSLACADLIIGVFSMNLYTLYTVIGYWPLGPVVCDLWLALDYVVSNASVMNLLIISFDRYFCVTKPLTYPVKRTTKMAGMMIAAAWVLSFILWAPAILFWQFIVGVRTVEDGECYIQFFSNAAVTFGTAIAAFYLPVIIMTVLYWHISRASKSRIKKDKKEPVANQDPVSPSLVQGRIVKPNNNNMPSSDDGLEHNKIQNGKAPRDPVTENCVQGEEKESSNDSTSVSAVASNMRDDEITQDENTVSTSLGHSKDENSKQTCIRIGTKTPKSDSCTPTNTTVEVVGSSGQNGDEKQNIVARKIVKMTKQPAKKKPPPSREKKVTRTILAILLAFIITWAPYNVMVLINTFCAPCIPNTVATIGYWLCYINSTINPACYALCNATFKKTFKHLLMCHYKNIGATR
- method summary: Displacement of [3H]-NMS from human muscarinic M2 W422A mutant expressed in Flp-In-CHO cells by liquid scintillation counting
Quick reference for pKi among some compounds
In textbook form, pKi equals minus log to base ten of the concentration in mol/L.

// worked examples, pKi included
C[N+](C)(CCCCCC[N+]1(C)[C@@H]2C[C@H](OC(=O)[C@H](CO)c3ccccc3)C[C@H]1[C@@H]1O[C@@H]12)CCCN1C(=O)c2ccccc2C1=O (some centres undefined): 8.16
C[N+](C)(CC#CCOC1=NOCC1)CCCCCC[N+](C)(C)CCCN1C(=O)c2ccccc2C1=O: 7.12
C[N+](C)(C)CC#CCOC1=NOCC1: 8.00
C[N+](C)(C)CCCCCC[N+](C)(C)CC#CCOC1=NOCC1: 6.56
CC(C)(CN1C(=O)c2cccc3cccc(c23)C1=O)C[N+](C)(C)CCCCCC[N+]1(C)[C@@H]2CC[C@@H]1CC(OC(=O)C(CO)c1ccccc1)C2 (relative stereo): 7.67

Let us examine a further case.
stdin: Give its pKi value. Item: C[N+](C)(C)CCCCCC[N+]1(C)[C@@H]2CC[C@@H]1CC(OC(=O)C(CO)c1ccccc1)C2 (relative stereo)
stdout: 7.26

---

Quick reference for Ki among some compounds
- assayed target: Muscarinic acetylcholine receptor M5 (Homo sapiens, UniProt P08912)
- Sequence (P08912 whole entry): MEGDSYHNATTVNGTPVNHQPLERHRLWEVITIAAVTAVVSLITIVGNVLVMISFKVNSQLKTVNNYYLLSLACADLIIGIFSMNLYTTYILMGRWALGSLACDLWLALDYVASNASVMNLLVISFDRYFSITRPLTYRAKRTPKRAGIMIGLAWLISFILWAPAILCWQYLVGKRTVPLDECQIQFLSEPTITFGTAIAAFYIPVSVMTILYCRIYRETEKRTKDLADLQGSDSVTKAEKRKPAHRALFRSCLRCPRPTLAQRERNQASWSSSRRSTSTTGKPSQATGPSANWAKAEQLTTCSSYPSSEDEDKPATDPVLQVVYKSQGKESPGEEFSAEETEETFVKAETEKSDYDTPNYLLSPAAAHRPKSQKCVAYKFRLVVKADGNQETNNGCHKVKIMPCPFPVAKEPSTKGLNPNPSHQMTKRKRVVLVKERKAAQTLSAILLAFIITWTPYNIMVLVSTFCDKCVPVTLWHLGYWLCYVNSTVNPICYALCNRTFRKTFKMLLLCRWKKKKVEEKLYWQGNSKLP
Enter your answer as a number in nM; do not include the unit.

// worked examples, Ki included
C[N+](C)(CCCCCC[N+]1(C)[C@@H]2C[C@H](OC(=O)[C@H](CO)c3ccccc3)C[C@H]1[C@@H]1O[C@@H]12)CCCN1C(=O)c2ccccc2C1=O (stereo partly specified): 17
C[N+](C)(C)CCCCCC[N+]1(C)[C@@H]2C[C@H](OC(=O)[C@H](CO)c3ccccc3)C[C@H]1[C@@H]1O[C@@H]12 (stereo partly specified): 20.9
CC(C)(CN1C(=O)c2cccc3cccc(c23)C1=O)C[N+](C)(C)CCCCCC[N+]1(C)[C@@H]2C[C@H](OC(=O)[C@H](CO)c3ccccc3)C[C@H]1[C@@H]1O[C@@H]12 (stereo partly specified): 5.5
C[N+](C)(C)CC#CCOC1=NOCC1: 120
C[N+](C)(C)CCCCCC[N+]1(C)[C@@H]2CC[C@@H]1CC(OC(=O)C(CO)c1ccccc1)C2 (relative stereo): 87.1

Let us examine a further case.
stdin: Give its Ki value. Item: CC(C)(CN1C(=O)c2cccc3cccc(c23)C1=O)C[N+](C)(C)CCCCCC[N+]1(C)[C@@H]2CC[C@@H]1CC(OC(=O)C(CO)c1ccccc1)C2 (relative stereo)
stdout: 19.5

---

Quick reference for pKi among some compounds
- assayed target: Muscarinic acetylcholine receptor M2 (Homo sapiens, UniProt P08172, T423H/Y177Q)
- Sequence (P08172 whole entry Y177Q/T423H): as the sequence (P08172 whole entry Y177Q) above, with T423H counted along it
- method summary: Displacement of [3H]-NMS from human muscarinic M2 Y177Q/T423H mutant expressed in Flp-In-CHO cells by liquid scintillation counting
In textbook form, pKi equals minus log to base ten of the concentration in mol/L.

CC(C)(CN1C(=O)c2cccc3cccc(c23)C1=O)C[N+](C)(C)CCCCCC[N+]1(C)[C@@H]2CC[C@@H]1CC(OC(=O)C(CO)c1ccccc1)C2 (relative stereo): 8.55

stdin: Give its pKi value. Item: C[N+](C)(CC#CCOC1=NOCC1)CCCCCC[N+](C)(C)CCCN1C(=O)c2ccccc2C1=O
stdout: 6.70

stdin: Give its pKi value. Item: C[N+](C)(C)CCCCCC[N+](C)(C)CC#CCOC1=NOCC1
stdout: 7.19

stdin: Give its pKi value. Item: C[N+](C)(C)CCCCCC[N+]1(C)[C@@H]2CC[C@@H]1CC(OC(=O)C(CO)c1ccccc1)C2 (relative stereo)
stdout: 7.74

---

Quick reference for Ki among some compounds
- assayed target: Muscarinic acetylcholine receptor M2 (Homo sapiens, UniProt P08172, T423H/Y177Q)
- method summary: Displacement of [3H]-NMS from human muscarinic M2 Y177Q/T423H mutant expressed in Flp-In-CHO cells by liquid scintillation counting
Enter your answer as a number in nM; do not include the unit.

// worked examples, Ki included
C[N+](C)(CCCCCC[N+]1(C)[C@@H]2C[C@H](OC(=O)[C@H](CO)c3ccccc3)C[C@H]1[C@@H]1O[C@@H]12)CCCN1C(=O)c2ccccc2C1=O (some centres undefined): 7.08
C[N+](C)(C)CC#CCOC1=NOCC1: 2.19
CC(C)(CN1C(=O)c2cccc3cccc(c23)C1=O)C[N+](C)(C)CCCCCC[N+]1(C)[C@@H]2C[C@H](OC(=O)[C@H](CO)c3ccccc3)C[C@H]1[C@@H]1O[C@@H]12 (some centres undefined): 3.31

stdin: Give its Ki value. Item: CC(C)(CN1C(=O)c2cccc3cccc(c23)C1=O)C[N+](C)(C)CCCCCC[N+](C)(C)CC#CCOC1=NOCC1
stdout: 26.9
